This section presents compounds with their documented pKd values.
subject.of.test: ASGPR (Homo sapiens, UniProt P07306)
Construct: biotin (biotinylated)
Sequence (P07306 whole entry): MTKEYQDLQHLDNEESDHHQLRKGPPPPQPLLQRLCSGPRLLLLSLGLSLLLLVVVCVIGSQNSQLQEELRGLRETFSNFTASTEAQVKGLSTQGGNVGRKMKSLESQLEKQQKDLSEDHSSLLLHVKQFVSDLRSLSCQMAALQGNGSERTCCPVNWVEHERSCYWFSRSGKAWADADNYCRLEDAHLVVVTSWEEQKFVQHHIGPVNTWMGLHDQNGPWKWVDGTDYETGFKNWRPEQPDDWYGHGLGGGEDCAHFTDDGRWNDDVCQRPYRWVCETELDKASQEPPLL
experiment.description: ASGPR SPR binding
measurement.parameters: Table 3, read-out: ASGPR SPR Binding KD
pKd: −log10 of the molar value.

Sample CC(C)C[C@@H]1NC(=O)[C@H](Cc2cnc[nH]2)NC(=O)[C@H](Cc2c[nH]c3ccccc23)NC(=O)[C@H](C)NC(=O)[C@@H]2CSSC[C@H](NC(=O)[C@H](Cc3c[nH]c4ccccc34)NC(=O)[C@H](C(C)C)NC(=O)[C@H](CC(C)C)NC(=O)[C@H](CCC(=O)O)NC(=O)CNC1=O)C(=O)N[C@@H]([C@@H](C)O)C(=O)N1CCC[C@@H]1C(=O)N1C[C@@H](NC(=O)COCCOCC(=O)NC[C@H]3OC[C@H](Nc4nccc(C(F)(F)F)n4)[C@@H](O)[C@H]3O)C[C@H]1C(=O)N[C@@H](CC(=O)O)C(=O)N2 ; pKd observed: < 6.00

Sample CC(C)C[C@@H]1NC(=O)[C@H](Cc2cnc[nH]2)NC(=O)[C@H](Cc2c[nH]c3ccccc23)NC(=O)[C@H](C)NC(=O)[C@@H]2CSSC[C@H](NC(=O)[C@H](Cc3c[nH]c4ccccc34)NC(=O)[C@H](C(C)C)NC(=O)[C@H](CC(C)C)NC(=O)[C@H](CCC(=O)O)NC(=O)CNC1=O)C(=O)N[C@@H]([C@@H](C)O)C(=O)N1CCC[C@@H]1C(=O)N1C[C@H](NC(=O)COCCOCC(=O)NC[C@H]3OC[C@H](Nc4nccc(C(F)(F)F)n4)[C@@H](O)[C@H]3O)C[C@H]1C(=O)N[C@@H](CC(=O)O)C(=O)N2 ; pKd observed: < 6.00

Sample CC(C)C[C@@H]1NC(=O)[C@H](Cc2cnc[nH]2)NC(=O)[C@H](Cc2c[nH]c3ccccc23)NC(=O)[C@H](C)NC(=O)[C@@H]2CSSC[C@H](NC(=O)[C@H](Cc3c[nH]c4ccccc34)NC(=O)[C@H](C(C)C)NC(=O)[C@H](CC(C)C)NC(=O)[C@H](CCC(=O)O)NC(=O)CNC1=O)C(=O)N[C@@H]([C@@H](C)O)C(=O)N1CCC[C@@H]1C(=O)N1C[C@@H](NC(=O)c3ccc(N4CCC(CN5CCN(C[C@H]6OC[C@H](Nc7ccnc(C(F)(F)F)n7)[C@@H](O)[C@H]6O)CC5)CC4)cc3)C[C@H]1C(=O)N[C@@H](CC(=O)O)C(=O)N2 ; pKd observed: > 7.00

Sample CC(C)C[C@@H]1NC(=O)[C@H](Cc2cnc[nH]2)NC(=O)[C@H](Cc2c[nH]c3ccccc23)NC(=O)[C@H](C)NC(=O)[C@@H]2CSSC[C@H](NC(=O)[C@H](Cc3c[nH]c4ccccc34)NC(=O)[C@H](C(C)C)NC(=O)[C@H](CC(C)C)NC(=O)[C@H](CCC(=O)O)NC(=O)CNC1=O)C(=O)N[C@@H]([C@@H](C)O)C(=O)N1CCC[C@@H]1C(=O)N1C[C@@H](NC(=O)COCCOCC(=O)NC[C@H]3OC[C@H](Nc4cccc(C(F)(F)F)n4)[C@@H](O)[C@H]3O)C[C@H]1C(=O)N[C@@H](CC(=O)O)C(=O)N2 ; pKd observed: 6.00 to 6.30

Sample CC(C)C[C@@H]1NC(=O)[C@H](Cc2cnc[nH]2)NC(=O)[C@H](Cc2c[nH]c3ccccc23)NC(=O)[C@H](C)NC(=O)[C@@H]2CSSC[C@H](NC(=O)[C@H](Cc3c[nH]c4ccccc34)NC(=O)[C@H](C(C)C)NC(=O)[C@H](CC(C)C)NC(=O)[C@H](CCC(=O)O)NC(=O)CNC1=O)C(=O)N[C@@H]([C@@H](C)O)C(=O)N1CCC[C@@H]1C(=O)N1C[C@@H](NC(=O)c3ccc(N4CCC(CN5CCN(C[C@H]6OC[C@H](Nc7cccc(C(F)(F)F)n7)[C@@H](O)[C@H]6O)CC5)CC4)cc3)C[C@H]1C(=O)N[C@@H](CC(=O)O)C(=O)N2 ; pKd observed: > 7.00

Sourced from patent US20260083851A1
